TARGET_OR_SYSTEM: Beta-3 adrenergic receptor (Homo sapiens); further: assay procedure not described here
Sequence (P13945 whole entry): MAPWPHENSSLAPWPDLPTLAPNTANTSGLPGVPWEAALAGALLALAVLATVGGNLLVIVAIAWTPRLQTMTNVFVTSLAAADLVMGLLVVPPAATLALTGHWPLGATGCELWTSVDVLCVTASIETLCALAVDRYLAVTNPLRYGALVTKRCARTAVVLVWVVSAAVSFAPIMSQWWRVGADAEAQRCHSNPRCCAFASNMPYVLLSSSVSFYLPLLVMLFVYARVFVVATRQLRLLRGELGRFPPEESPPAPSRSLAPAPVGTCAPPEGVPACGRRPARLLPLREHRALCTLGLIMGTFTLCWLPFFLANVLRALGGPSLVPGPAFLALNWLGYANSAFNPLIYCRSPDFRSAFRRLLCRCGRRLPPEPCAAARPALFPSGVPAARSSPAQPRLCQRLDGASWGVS
EXPERIMENTAL_READOUT: AC50

[[record]]
molecule = "CC1(C)S[C@@H]2[C@H](NC(=O)[C@H](N)c3ccc(O)cc3)C(=O)N2[C@H]1C(=O)O"
target_or_system = "Beta-3 adrenergic receptor (Homo sapiens)"
reported = "> 30 µM"

[[record]]
molecule = "CN1C[C@H](C(=O)N[C@]2(C)O[C@@]3(O)[C@@H]4CCCN4C(=O)[C@H](Cc4ccccc4)N3C2=O)C[C@@H]2c3cccc4[nH]cc(c34)C[C@H]21 [DIHYDROERGOTAMINE]"
target_or_system = "Beta-3 adrenergic receptor (Homo sapiens)"
reported = "0.26 µM"

[[record]]
molecule = "CC(=O)S[C@@H]1CC2=CC(=O)CC[C@]2(C)[C@H]2CC[C@@]3(C)[C@@H](CC[C@@]34CCC(=O)O4)[C@H]12"
target_or_system = "Beta-3 adrenergic receptor (Homo sapiens)"
reported = "> 30 µM"


====

Let's go through some recorded AC50 values for Motilin receptor (Homo sapiens, UniProt O43193) together.
EXPERIMENTAL_READOUT: AC50

[[record]]
compound = "Cc1cc(CC(=O)O)n(C)c1C(=O)c1ccc(Cl)cc1 [ZOMEPIRAC]"
target_or_system = "Motilin receptor (Homo sapiens, UniProt O43193)"
reported = "> 30 µM"

[[record]]
compound = "Cc1ccc(NC(=O)C2(c3ccc4c(c3)OC(F)(F)O4)CC2)nc1-c1cccc(C(=O)O)c1 [LUMACAFTOR]"
target_or_system = "Motilin receptor (Homo sapiens, UniProt O43193)"
reported = "> 30 µM"

[[record]]
compound = "CC(=N)N1CC[C@H](SC2=C(C(=O)O)N3C(=O)[C@H]([C@@H](C)O)[C@H]3C2)C1"
target_or_system = "Motilin receptor (Homo sapiens, UniProt O43193)"
reported = "> 300 µM"

[[record]]
compound = "C=CC(N)CCC(=O)O (stereo not drawn) [VIGABATRIN]"
target_or_system = "Motilin receptor (Homo sapiens, UniProt O43193)"
reported = "> 10 µM"

[[record]]
compound = "N[C@H](Cc1cc(I)c(Oc2cc(I)c(O)c(I)c2)c(I)c1)C(=O)O [DEXTROTHYROXINE]"
target_or_system = "Motilin receptor (Homo sapiens, UniProt O43193)"
reported = "> 10 µM"

[[record]]
compound = "O=C1CN=C(c2ccccc2)c2cc(Cl)ccc2N1 [NORDAZEPAM]"
target_or_system = "Motilin receptor (Homo sapiens, UniProt O43193)"
reported = "> 10 µM"

[[record]]
compound = "CCCCCCOC(=O)CCC(=O)CN [HEXAMINOLEVULINATE]"
target_or_system = "Motilin receptor (Homo sapiens, UniProt O43193)"
reported = "> 30 µM"

[[record]]
compound = "Cc1cc2nc3c(=O)[nH]c(=O)nc-3n(C[C@H](O)[C@H](O)[C@H](O)COP(=O)(O)O)c2cc1C [RIBOFLAVIN 5'-PHOSPHATE]"
target_or_system = "Motilin receptor (Homo sapiens, UniProt O43193)"
reported = "> 30 µM"

[[record]]
compound = "COc1cccc2c1C(=O)c1c(O)c3c(c(O)c1C2=O)C[C@@](O)(C(C)=O)C[C@@H]3O[C@H]1C[C@H](N)[C@H](O)[C@H](C)O1 [DAUNORUBICIN]"
target_or_system = "Motilin receptor (Homo sapiens, UniProt O43193)"
reported = "> 30 µM"

[[record]]
compound = "CO/N=C(\\C(=O)N[C@@H]1C(=O)N2C(C(=O)O)=C(COC(N)=O)CS[C@H]12)c1ccco1 [CEFUROXIME]"
target_or_system = "Motilin receptor (Homo sapiens, UniProt O43193)"
reported = "> 30 µM"

[[record]]
compound = "CC(C)N(CCCCOCC(=O)NS(C)(=O)=O)c1cnc(-c2ccccc2)c(-c2ccccc2)n1 [SELEXIPAG]"
target_or_system = "Motilin receptor (Homo sapiens, UniProt O43193)"
reported = "> 30 µM"

[[record]]
compound = "CCCOC(C(=O)OC1CCN(C)CC1)(c1ccccc1)c1ccccc1 [PROPIVERINE]"
target_or_system = "Motilin receptor (Homo sapiens, UniProt O43193)"
reported = "15 µM"

[[record]]
compound = "C#C[C@]1(O)CC[C@H]2[C@@H]3CCc4cc(OC)ccc4[C@H]3CC[C@@]21C [MESTRANOL]"
target_or_system = "Motilin receptor (Homo sapiens, UniProt O43193)"
reported = "> 10 µM"


====

TARGET_OR_SYSTEM: UniProt P21728
Sequence (P21728 whole entry): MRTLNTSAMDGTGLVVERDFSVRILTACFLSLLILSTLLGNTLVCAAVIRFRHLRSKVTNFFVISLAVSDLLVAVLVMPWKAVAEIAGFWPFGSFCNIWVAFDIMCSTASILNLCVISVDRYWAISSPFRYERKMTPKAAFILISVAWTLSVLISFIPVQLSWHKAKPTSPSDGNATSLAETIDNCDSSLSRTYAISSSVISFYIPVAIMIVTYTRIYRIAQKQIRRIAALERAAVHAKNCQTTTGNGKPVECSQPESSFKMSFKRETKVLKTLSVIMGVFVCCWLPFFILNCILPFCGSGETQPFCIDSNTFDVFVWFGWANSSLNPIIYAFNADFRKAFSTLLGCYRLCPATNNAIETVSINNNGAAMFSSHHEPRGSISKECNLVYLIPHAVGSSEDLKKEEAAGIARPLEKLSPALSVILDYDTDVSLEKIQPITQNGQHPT
Format: functional, cell-based
EXPERIMENTAL_READOUT: AC50

[[record]]
molecule = "Nc1nc(O)c2ncn(COC(CO)CO)c2n1"
experimental_readout = "AC50"
reported = "> 30 µM"

[[record]]
molecule = "CCCOC(C(=O)OC1CCN(C)CC1)(c1ccccc1)c1ccccc1"
experimental_readout = "AC50"
reported = "> 30 µM"

[[record]]
molecule = "N=C(N)c1ccc2cc(OC(=O)c3ccc(N=C(N)N)cc3)ccc2c1"
experimental_readout = "AC50"
reported = "> 30 µM"

[[record]]
molecule = "CC(=N)N1CC[C@H](SC2=C(C(=O)O)N3C(=O)[C@H]([C@@H](C)O)[C@H]3C2)C1"
experimental_readout = "AC50"
reported = "> 300 µM"

[[record]]
molecule = "CCC(=O)OCC(=O)[C@@]1(OC(=O)CC)[C@@H](C)C[C@H]2[C@@H]3CCC4=CC(=O)C=C[C@]4(C)[C@@]3(F)[C@@H](O)C[C@@]21C [BETAMETHASONE DIPROPIONATE]"
experimental_readout = "AC50"
reported = "> 30 µM"

[[record]]
molecule = "CC(/C=C1\\SC(=S)N(CC(=O)O)C1=O)=C\\c1ccccc1"
experimental_readout = "AC50"
reported = "> 30 µM"

[[record]]
molecule = "NS(=O)(=O)c1cc(C(=O)O)cc(N2CCCC2)c1Oc1ccccc1 [PIRETANIDE]"
experimental_readout = "AC50"
reported = "> 30 µM"

[[record]]
molecule = "CC(C)c1cc2c(cc1S(=O)(=O)O)[C@@]1(C)CCC[C@@](C)(C(=O)O)[C@@H]1CC2"
experimental_readout = "AC50"
reported = "> 30 µM"

[[record]]
molecule = "CCOC(=O)NNc1ccc(N(CC)CC(C)O)nn1 (configuration not stated)"
experimental_readout = "AC50"
reported = "> 30 µM"

[[record]]
molecule = "COCCOC(=O)C1=C(C)NC(C)=C(C(=O)OC/C=C/c2ccccc2)C1c1cccc([N+](=O)[O-])c1 (configuration not stated)"
experimental_readout = "AC50"
reported = "> 30 µM"

[[record]]
molecule = "CNC(=O)Oc1ccc2c(c1)[C@]1(C)CCN(C)[C@@H]1N2C"
experimental_readout = "AC50"
reported = "> 30 µM"

[[record]]
molecule = "Clc1ccc2c(c1)C(c1ccccc1)=NCc1nncn1-2"
experimental_readout = "AC50"
reported = "> 10 µM"


====

These compounds were tested on 5-hydroxytryptamine receptor 2A (Homo sapiens); AC50 is the recorded read-out. Further: assay procedure not described here.
Sequence (P28223 whole entry): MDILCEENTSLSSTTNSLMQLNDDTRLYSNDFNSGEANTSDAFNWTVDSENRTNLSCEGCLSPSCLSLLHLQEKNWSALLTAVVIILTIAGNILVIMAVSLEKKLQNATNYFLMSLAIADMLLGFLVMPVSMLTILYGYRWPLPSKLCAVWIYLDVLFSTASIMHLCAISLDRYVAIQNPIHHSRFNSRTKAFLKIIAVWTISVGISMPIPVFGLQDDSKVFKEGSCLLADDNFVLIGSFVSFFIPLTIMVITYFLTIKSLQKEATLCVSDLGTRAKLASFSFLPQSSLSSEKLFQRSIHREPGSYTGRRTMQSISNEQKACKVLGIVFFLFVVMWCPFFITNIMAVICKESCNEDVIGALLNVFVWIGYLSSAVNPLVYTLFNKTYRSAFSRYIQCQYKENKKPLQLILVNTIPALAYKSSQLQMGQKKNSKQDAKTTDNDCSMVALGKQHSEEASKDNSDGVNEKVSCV
EXPERIMENTAL_READOUT: AC50

[[record]]
compound = "O=C1CN2Cc3c(ccc(Cl)c3Cl)N=C2N1 [ANAGRELIDE]"
target_or_system = "5-hydroxytryptamine receptor 2A (Homo sapiens)"
experimental_readout = "AC50"
reported = "> 10 µM"

[[record]]
compound = "O=C1Nc2ccc(Cl)cc2C(c2ccccc2)=NC1O (stereo not drawn) [OXAZEPAM]"
target_or_system = "5-hydroxytryptamine receptor 2A (Homo sapiens)"
experimental_readout = "AC50"
reported = "> 10 µM"

[[record]]
compound = "Cc1ccc(=O)n(-c2ccccc2)c1 [PIRFENIDONE]"
target_or_system = "5-hydroxytryptamine receptor 2A (Homo sapiens)"
experimental_readout = "AC50"
reported = "> 10 µM"


====

Lab note: AC50 readings collected with Mu-type opioid receptor (Homo sapiens) for the following compounds.
Sequence (P35372 whole entry): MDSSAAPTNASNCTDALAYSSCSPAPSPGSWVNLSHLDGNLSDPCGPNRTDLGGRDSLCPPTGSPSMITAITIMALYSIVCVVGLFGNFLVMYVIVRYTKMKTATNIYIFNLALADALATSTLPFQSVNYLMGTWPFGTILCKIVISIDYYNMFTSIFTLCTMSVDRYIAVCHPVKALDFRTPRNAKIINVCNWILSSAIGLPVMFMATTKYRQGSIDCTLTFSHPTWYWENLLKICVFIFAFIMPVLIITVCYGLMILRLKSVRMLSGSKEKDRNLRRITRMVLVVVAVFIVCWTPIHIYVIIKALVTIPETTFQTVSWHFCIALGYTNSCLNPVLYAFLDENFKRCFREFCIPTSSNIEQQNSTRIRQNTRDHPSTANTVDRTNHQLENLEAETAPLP
EXPERIMENTAL_READOUT: AC50

[[record]]
compound = "CNCC[C@H](Oc1cccc2ccccc12)c1cccs1"
experimental_readout = "AC50"
reported = "12 µM"

[[record]]
compound = "CCn1cc(C(=O)O)c(=O)c2cc(F)c(N3CCNCC3)nc21"
experimental_readout = "AC50"
reported = "> 10 µM"

[[record]]
compound = "COc1ccc(C(CN(C)C)C2(O)CCCCC2)cc1 (stereo not drawn)"
experimental_readout = "AC50"
reported = "> 30 µM"


====

Measured AC50, listed per entry for reference.
TARGET_OR_SYSTEM: UniProtKB P35439
EXPERIMENTAL_READOUT: AC50

[[record]]
molecule = "O=c1oc2ccccc2c(O)c1Cc1c(O)c2ccccc2oc1=O"
reported = "> 10 µM"

[[record]]
molecule = "CCN(CC)CCOC(=O)c1ccc(N)cc1Cl"
reported = "> 30 µM"

[[record]]
molecule = "Cc1ccc(NC(=O)C2(c3ccc4c(c3)OC(F)(F)O4)CC2)nc1-c1cccc(C(=O)O)c1"
reported = "> 30 µM"

[[record]]
molecule = "Cc1cnc(NC(=O)C2=C(O)c3ccccc3S(=O)(=O)N2C)s1"
reported = "> 10 µM"

[[record]]
molecule = "CN1C[C@H](C(=O)N[C@]2(C)O[C@@]3(O)[C@@H]4CCCN4C(=O)[C@H](Cc4ccccc4)N3C2=O)C[C@@H]2c3cccc4[nH]cc(c34)C[C@H]21 [DIHYDROERGOTAMINE]"
reported = "> 10 µM"

[[record]]
molecule = "CC(C)C[C@H](CN)CC(=O)O"
reported = "> 30 µM"

[[record]]
molecule = "NC(=O)c1ncn([C@@H]2O[C@H](CO)[C@@H](O)[C@H]2O)n1"
reported = "> 10 µM"

[[record]]
molecule = "CC(=O)S[C@@H]1CC2=CC(=O)CC[C@]2(C)[C@H]2CC[C@@]3(C)[C@@H](CC[C@@]34CCC(=O)O4)[C@H]12"
reported = "> 10 µM"

